Reference source for all entries: ChEMBL document CHEMBL4428027

- measuredTarget: UniProt:Q72547
- assay: Inhibition of RNase H activity of full length recombinant HIV1 reverse transcriptase assessed as reduction in DNA 3'-end cleavage using HTS2 substrate
- statedConditions: read-out: IC50
Exercise: state measured pIC50 for each of the compounds provided.
Answers are plain numbers, as −log10 of the molar value.

# recordSmiles, pIC50
rows = [
    ("Cn1c(Nc2ccc(-c3ccccc3)cc2)cc(=O)n(O)c1=O", 5.46),
    ("Cn1c(Nc2cccc(-c3ccc(C#N)cc3)c2)cc(=O)n(O)c1=O", 5.64),
    ("Cn1c(Nc2ccc(-c3cccc(C#N)c3)cc2)cc(=O)n(O)c1=O", 5.43),
]

Provide the reported pIC50 of each entry below, same order.
1. Cn1c(Oc2ccc(-c3cccc(C#N)c3)cc2)cc(=O)n(O)c1=O
2. COc1ccccc1-c1cccc(Nc2cc(=O)n(O)c(=O)n2C)c1
3. COc1ccc(-c2ccc(Nc3cc(=O)n(O)c(=O)n3C)cc2)c(OC)c1

Response given:
[4.89, 5.68, 5.37]

I would be grateful if you could provide pIC50 for each of the following entries.
1. Cn1c(Nc2ccc(-c3ccc(C#N)cc3)cc2)cc(=O)n(O)c1=O
2. COc1cccc(OC)c1-c1cccc(Nc2cc(=O)n(O)c(=O)n2C)c1
3. Cc1ccc(-c2cccc(Nc3cc(=O)n(O)c(=O)n3C)c2)cc1
4. COc1cc(OC)cc(-c2ccc(Nc3cc(=O)n(O)c(=O)[nH]3)cc2)c1
5. Cn1c(Nc2cccc(-c3cccc(C#N)c3)c2)cc(=O)n(O)c1=O
6. Cn1c(Oc2ccc(-c3ccc(C#N)cc3)cc2)cc(=O)n(O)c1=O

Response given:
[5.59, 5.16, 5.14, 6.49, 5.49, 4.96]

# batch: return pIC50 for each of the 6 compounds below
1. O=c1cc(Nc2cccc(-c3ccc(Cl)cc3)c2)[nH]c(=O)n1O
2. Cc1ccc(-c2ccc(Nc3cc(=O)n(O)c(=O)[nH]3)cc2)cc1
3. O=c1cc(Nc2ccc(-c3ccc(Cl)cc3)cc2)[nH]c(=O)n1O
4. COc1cccc(-c2cccc(Oc3cc(=O)n(O)c(=O)n3C)c2)c1
5. COc1ccc(-c2cccc(Nc3cc(=O)n(O)c(=O)[nH]3)c2)c(OC)c1
6. Cc1noc(C)c1-c1ccc(Nc2cc(=O)n(O)c(=O)n2C)cc1

Response given:
1. 6.35
2. 6.15
3. 6.18
4. 4.77
5. 6.27
6. 5.36

* * *

- measuredTarget: Human immunodeficiency virus type 1 reverse transcriptase (Human immunodeficiency virus 1)
- assay: Inhibition of RNase H activity of full length recombinant HIV1 reverse transcriptase assessed as reduction in nonspecific internal cleavage using HTS1 substrate
- statedConditions: read-out: IC50
pIC50: −log10 of the molar value.
Would you please tag the item 1 when its pIC50 is 6 or above, and 0 when it is below?

Worked cases, answers included:
# recordSmiles, labelValue
rows = [
    ("Cc1ccc(-c2ccc(Nc3cc(=O)n(O)c(=O)[nH]3)cc2)cc1", 1),
    ("COc1ccc(-c2cccc(Nc3cc(=O)n(O)c(=O)[nH]3)c2)c(OC)c1", 1),
]

Challenge: Does the reported pIC50 for COc1ccccc1-c1ccc(Nc2cc(=O)n(O)c(=O)n2C)cc1 fall at or above the 6 mark?
Response given: 0

Challenge: Textbook exercise: given the entry COc1ccccc1-c1cccc(Oc2cc(=O)n(O)c(=O)n2C)c1 , state whether its pIC50 is greater than or equal to 6.
Response given: 0
